- Test Target: EcPDF (Escherichia coli)
- Construct: made in house
- Sequence (P0A6K3 whole entry): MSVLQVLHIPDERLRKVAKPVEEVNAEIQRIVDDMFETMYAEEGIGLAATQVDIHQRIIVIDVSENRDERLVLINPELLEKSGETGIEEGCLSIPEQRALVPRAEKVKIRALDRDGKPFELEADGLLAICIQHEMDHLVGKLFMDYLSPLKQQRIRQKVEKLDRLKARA
- Assay Summary: PDF inhibition, formate dehydrogenase-coupled spectrophotometric assay (EcPDF)
- Format: biochemical
- Description: The formate released by the deformylation reaction is used by FDH to convert NAD in NADH, the production of which being measured over time at 340 nm and controlled temperature (37 °C). The 200 μL reaction mixture contained 50 mM HEPES-NaOH pH7.5, 12 mM NAD^+, 4.5 U/mL FDH, 1 mM NiCl2 and PDF enzyme (either 40 nM SaPDF or 10 nM EcPDF or 100 nM AtPDF1B) previously diluted in presence of 0.1 mg/mL BSA. […]
Returns: string. Value is 1.0 if measured IC50 is below 20 nM, and 0.0 if it is greater than or equal to it.

| Molecule | Class Label |
| --- | --- |
| CCCC[C@H](CC(=O)NO)c1nc(Cc2coc3ccccc23)no1 | 1.0 |
| O=C(Cn1cc(Cc2ccccc2)c2cc(Br)ccc21)NO | 0.0 |
| O=C(C[C@@H](CC1CCCC1)c1nc(Cc2coc3ccccc23)no1)NO | 1.0 |
| O=C(Cc1c[nH]c2ccc(Br)cc12)NO | 0.0 |

API: query returns whether the molecule falls strictly under 20 nM in IC50. Query: CCCCC(CC(=O)NO)c1nc(Cc2ccc(-c3ccccc3)cc2)no1 (centres unmarked) 0.0

Try "O=C(C[C@@H](CC1CCCC1)c1nc(Cc2ccc3c(c2)OCO3)no1)NO" next. 1.0

Try CCCCC(CC(=O)NO)c1nc(Cc2ccc(F)cc2)no1 (centres unmarked) next. 1.0

---

- Test Target: AtPDF1B (Arabidopsis thaliana)
- Construct: made in house
- Sequence (Q9FUZ2 83-273): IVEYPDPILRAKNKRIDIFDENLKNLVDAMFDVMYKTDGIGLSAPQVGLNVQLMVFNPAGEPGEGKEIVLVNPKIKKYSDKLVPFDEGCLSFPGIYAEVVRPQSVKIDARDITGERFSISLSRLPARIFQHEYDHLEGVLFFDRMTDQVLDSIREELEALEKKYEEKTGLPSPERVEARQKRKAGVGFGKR
- Assay Summary: PDF inhibition, formate dehydrogenase-coupled spectrophotometric assay (AtPDF1B)
- Type: biochemical
- Condition Label: PDFI pre-incubated with enzyme 10 min at 37 °C, started by 2 mM Fo-Met-Ala-Ser; 100 nM AtPDF1B; read-out: AtPDF1B KI*app
Quantity Name: log10 Ki (log10 of the value in nM)
// do not treat as linear: log10 of Ki, unit nM

Consider the reported log10 Ki for these compounds:
| Compound | log10 Ki |
| --- | --- |
| CCCCC(CC(=O)NO)c1nc(Cc2ccc(C(=O)OC)cc2)no1 (centres unmarked) [AT018] | 2.92 |
| CCCCC(CC(=O)NO)c1nc(-c2ccc(C(F)(F)F)cc2)no1 (centres unmarked) [AT011] | 3.70 |
| CCCC[C@H](CC(=O)NO)c1nc(Cc2ccc(OC(F)(F)F)cc2)no1 [AT013] | 2.48 |
| O=C(Cn1cc(Cc2ccccc2)c2cc(Br)ccc21)NO [SMP289] | 3.16 |

Name the recorded log10 Ki for CCCCC(CC(=O)NO)c1nc(Cc2ccc(C)cc2)no1 (centres unmarked) [AT012] . 2.80

Recorded values, source paper PMC5071857.
